Each recorded value in this set is attributed to ChEMBL document CHEMBL4689842.

- Tested on: Fibroblast
- ASSAY_EXPLANATION: Multiplex assay against human fibroblast
- Assay type: toxicity, cell-based
- CONDITION_PARAMETERS: 48 h, 10 µM, compound concentration 10 uM, replicate 1
MEASURED_PARAMETER: Population Hoechst High Intensity Objects (%)
// return numeric value only (unit: %, not printed)

Worked cases, Population Hoechst High Intensity Objects (%) given:
CCOc1cc2ncc(C#N)c(Nc3ccc(OCc4ccccn4)c(Cl)c3)c2cc1NC(=O)/C=C/CN(C)C
42
CN(C)C(=O)C(CCN1CCC(O)(c2ccc(Cl)cc2)CC1)(c1ccccc1)c1ccccc1.Cl [LOPERAMIDE HYDROCHLORIDE]
36
O=C(Nc1ccc(Cl)cc1)Nc1cccc(-c2cccc(N3CCCC3)n2)c1
45
O=C1NC(=O)C(c2cnc3ccccn23)=C1c1cn2c3c(cc(F)cc13)CN(C(=O)N1CCCCC1)CC2
15

Report its Population Hoechst High Intensity Objects (%) with Fibroblast as the test system: O=C(Cc1ccc(-c2ccc(OCCN3CCOCC3)cc2)cn1)NCc1ccccc1
17

Report its Population Hoechst High Intensity Objects (%) with Fibroblast as the test system: Cl.O=c1c2cccn2c2ccccc2n1CCCN1CCC(c2ccc(Cl)cc2)CC1
48

Report its Population Hoechst High Intensity Objects (%) with Fibroblast as the test system: O=C(Nc1ccc(-n2nc(-c3cccnc3)cc2C(F)(F)F)cn1)c1ccc(-c2ccccc2)c(F)c1
15

Report its Population Hoechst High Intensity Objects (%) with Fibroblast as the test system: S=C(NCCCc1c[nH]cn1)NCCCN(Cc1ccc(Cl)c(Cl)c1)c1ccc(Br)cn1
34

---

- Tested on: HEK-293T
- ASSAY_EXPLANATION: Multiplex assay against HEK293T
- Format: toxicity, cell-based
- CONDITION_PARAMETERS: human, 24 h, 10 µM, compound concentration 10 uM, replicate 1
MEASURED_PARAMETER: Population Membrane Permeable-Phenotype (%)
// return numeric value only (unit: %, not printed)

C=C1/C(=C\C=C2/CCC[C@]3(C)[C@@H]([C@H](C)/C=C/[C@H](C)C(C)C)CC[C@@H]23)C[C@@H](O)C[C@@H]1O
7
CCOC(=O)c1c(C)[nH]c2ccc3c(c12)CN1CCc2cc(OC)ccc2C1O3 (stereo not drawn)
0
CCOc1cc2ncc(C#N)c(Nc3ccc(OCc4ccccn4)c(Cl)c3)c2cc1NC(=O)/C=C/CN(C)C
1
CN1CCC(=C2c3ccccc3CC(=O)c3sccc32)CC1.O=C(O)/C=C/C(=O)O [KETOTIFEN FUMARATE]
1
COc1cccc2cc(-c3nc([C@H]4CC[C@H](C(=O)O)CC4)n4ncnc(N)c34)[nH]c12
10

Using known records, supply Population Membrane Permeable-Phenotype (%) for Cc1ccc(C(=O)Nc2cccc(C(F)(F)F)c2)cc1Nc1nc(-c2cccnc2)nc2c1cnn2C
0

Using known records, supply Population Membrane Permeable-Phenotype (%) for COC(=N)c1nc2ccc3ncnc(Nc4ccc(OC)cc4F)c3c2s1
7

Using known records, supply Population Membrane Permeable-Phenotype (%) for CCn1c(=O)c(-c2ccc(-c3cncs3)cc2Cl)cc2cnc(Nc3ccc(N4CCN(C)CC4)cc3)nc21
0

---

- Tested on: Fibroblast
- ASSAY_EXPLANATION: Multiplex assay against human fibroblast
- Type: toxicity, cell-based
- CONDITION_PARAMETERS: 48 h, 10 µM, compound concentration 10 uM, replicate 1
One threshold, 9%, splits the recorded Population Mitochondria Different-Phenotype (%) values: lower ones are criterion met, equal or higher ones are criterion not met.

CCn1c(=O)c(-c2ccc(-c3cncs3)cc2Cl)cc2cnc(Nc3ccc(N4CCN(C)CC4)cc3)nc21
criterion met
O=C1N/C(=N/c2ccccc2F)S/C1=C\c1ccc(C(=O)O)cc1
criterion met
O=C(Cc1ccc(-c2ccc(OCCN3CCOCC3)cc2)cn1)NCc1ccccc1 [TIRBANIBULIN]
criterion met
Cl.Oc1ccc2c3c1O[C@H]1c4[nH]c5c(c4C[C@@]4(O)[C@@H](C2)N(CC2CC2)CC[C@]314)C[C@@]1(O)[C@H]2Cc3ccc(O)c4c3[C@@]1(CCN2CC1CC1)[C@H]5O4
criterion met
S=C(NCCCc1c[nH]cn1)NCCCN(Cc1ccc(Cl)c(Cl)c1)c1ccc(Br)cn1
criterion not met
O=C(Nc1ccc(Cl)cc1)Nc1cccc(-c2cccc(N3CCCC3)n2)c1
criterion not met
O=C(Nc1ccc(-c2ccnc(Nc3ccc(N4CCOCC4)cc3)n2)cc1)[C@@H]1CCCN1
criterion met

API: the following record is the query input.
Hello, is Population Mitochondria Different-Phenotype (%) of the following compound strictly smaller than 9%? CN1C2CCC1CC(OC(c1ccc(F)cc1)c1ccc(F)cc1)C2.Cl (centres undefined)
criterion not met

---

- Tested on: Fibroblast
- ASSAY_EXPLANATION: Multiplex assay against human fibroblast
- Assay type: toxicity, cell-based
- CONDITION_PARAMETERS: 24 h, 10 µM, compound concentration 10 uM, replicate 2
Attribute: Population Tubulin-Different-Phenotype (%)
// return numeric value only (unit: %, not printed)

Worked cases, Population Tubulin-Different-Phenotype (%) given:
CCOC(=O)c1c(C)[nH]c2ccc3c(c12)CN1CCc2cc(OC)ccc2C1O3 (configuration not stated)
100
O=C(Nc1cccnn1)N1CCC(=Cc2cccc(Oc3ccc(C(F)(F)F)cn3)c2)CC1
20
COc1cc(N2CCN(C)CC2)ccc1Nc1ncc2c(n1)N(C)c1ccccc1C(=O)N2C
66
CCN1CCN(c2ccc(Nc3cc(N(C)C(=O)Nc4c(Cl)c(OC)cc(OC)c4Cl)ncn3)cc2)CC1
9
CN1C2CCC1CC(OC(c1ccc(F)cc1)c1ccc(F)cc1)C2.Cl (configuration not stated)
25
CCCS(=O)(=O)c1nc(NC2CC2)cc(-c2ccc3c(ccn3C3CC(C)(C)NC(C)(C)C3)c2)n1
96
O=C1N/C(=N/c2ccccc2F)S/C1=C\c1ccc(C(=O)O)cc1
16
CN(C)C(=O)C(CCN1CCC(O)(c2ccc(Cl)cc2)CC1)(c1ccccc1)c1ccccc1.Cl [LOPERAMIDE HYDROCHLORIDE]
95

Report its Population Tubulin-Different-Phenotype (%) with Fibroblast as the test system: COC(=N)c1nc2ccc3ncnc(Nc4ccc(OC)cc4F)c3c2s1
10

Report its Population Tubulin-Different-Phenotype (%) with Fibroblast as the test system: COCC(=O)NC/C=C/c1ccc2ncnc(Nc3ccc(Oc4ccc(C)nc4)c(C)c3)c2c1
100

Report its Population Tubulin-Different-Phenotype (%) with Fibroblast as the test system: CCOc1cc(C(=O)N2CCC(N3CCN(C)CC3)CC2)ccc1Nc1ncc2c(n1)N(C1CCCC1)c1ccccc1C(=O)N2C
100

Report its Population Tubulin-Different-Phenotype (%) with Fibroblast as the test system: CCn1c(=O)c(-c2ccc(-c3cncs3)cc2Cl)cc2cnc(Nc3ccc(N4CCN(C)CC4)cc3)nc21
8

---

- Tested on: HEK-293T
- ASSAY_EXPLANATION: Incucyte cell viability with HEK293T; note: filed as whole numbers so only -1 and 0 and 1 occur
- Format: toxicity, cell-based
- CONDITION_PARAMETERS: human, 0 h, 10 µM, compound concentration 10 uM, replicate number 2, timepoint 0 hours
Attribute: Growth Rate
A bare number is all that is needed in reply.

S=C(NCCCc1c[nH]cn1)NCCCN(Cc1ccc(Cl)c(Cl)c1)c1ccc(Br)cn1
0
CN([C@@H](Cc1ccc(OS(=O)(=O)c2cccc3cnccc23)cc1)C(=O)N1CCN(c2ccccc2)CC1)S(=O)(=O)c1cccc2cnccc12
1

Using known records, supply Growth Rate for CC(=O)c1c(NS(C)(=O)=O)c2cc(-c3ccc(Cl)cc3)c(-c3ccc(Cl)cc3Cl)nc2n(C)c1=O
0

Using known records, supply Growth Rate for Cn1nc(C(=O)NCc2ccc(C(=O)O)cc2)cc1-c1ccc2[nH]ccc2c1
1

Using known records, supply Growth Rate for CC[C@H](CO)Nc1nc(NCc2ccccc2)c2ncn(C(C)C)c2n1
1

Using known records, supply Growth Rate for CC(C)(C(=O)O)c1ccc(C(O)CCCN2CCC(C(O)(c3ccccc3)c3ccccc3)CC2)cc1.Cl (configuration not stated) [FEXOFENADINE HYDROCHLORIDE]
0

Using known records, supply Growth Rate for NS(=O)(=O)c1c(Cl)ccc(NC(=O)Nc2cccc(Cl)c2Cl)c1O
0

Using known records, supply Growth Rate for Cc1nnc2c3ccccc3c(N[C@@H](C)[C@H](c3ccccc3)N(C)C)nn12
1

Using known records, supply Growth Rate for Cc1cc([C@@H](C)Nc2cccc(-c3cc(C)c(C(=O)N[C@@H](C)C(=O)O)c(C)c3)c2)ccc1Cl
0

Using known records, supply Growth Rate for c1ccc(Nc2nc3c(s2)CCCc2[nH]ncc2-3)nc1
0

Using known records, supply Growth Rate for O=C(c1ccc(C(=O)N2CCC(N3CCCC3)CC2)c(Nc2ccccc2)c1)N1CCC(N2CCCC2)CC1
0

---

- Test system: U2OS
- ASSAY_EXPLANATION: Multiplex assay against U2OS
- Assay type: toxicity, cell-based
- CONDITION_PARAMETERS: human, 12 h, 1 µM, compound concentration 1 uM, replicate 2
MEASURED_PARAMETER: Population Membrane Permeable-Phenotype (%)
// return numeric value only (unit: %, not printed)

CN1CCN(C(=O)C(C)(C)c2ccc(C(=O)Nc3cn4cc(-c5cc(C(C)(C)C)cc(C(C)(C)C)c5)ccc4n3)cc2)CC1
14
CN[C@@H]1C[C@H]2O[C@@](C)([C@@H]1OC)n1c3ccccc3c3c4c(c5c6ccccc6n2c5c31)C(=O)NC4
100

Using known records, supply Population Membrane Permeable-Phenotype (%) for COc1cccc2cc(-c3nc([C@H]4CC[C@H](C(=O)O)CC4)n4ncnc(N)c34)[nH]c12
8

Using known records, supply Population Membrane Permeable-Phenotype (%) for O=C(Nc1ccc(Cl)cc1)Nc1cccc(-c2cccc(N3CCCC3)n2)c1
10

Using known records, supply Population Membrane Permeable-Phenotype (%) for CCCS(=O)(=O)Nc1ccc(F)c(C(=O)c2c[nH]c3ncc(Cl)cc23)c1F
12

Using known records, supply Population Membrane Permeable-Phenotype (%) for O=C(Nc1ccc(-n2nc(-c3cccnc3)cc2C(F)(F)F)cn1)c1ccc(-c2ccccc2)c(F)c1
3

Using known records, supply Population Membrane Permeable-Phenotype (%) for O=C(Cc1ccc(-c2ccc(OCCN3CCOCC3)cc2)cn1)NCc1ccccc1
9
